- tested.on: REV7^W171A (human, UniProt Q9UI95 1-211, W171A)
- Sequence (Q9UI95 whole entry W171A): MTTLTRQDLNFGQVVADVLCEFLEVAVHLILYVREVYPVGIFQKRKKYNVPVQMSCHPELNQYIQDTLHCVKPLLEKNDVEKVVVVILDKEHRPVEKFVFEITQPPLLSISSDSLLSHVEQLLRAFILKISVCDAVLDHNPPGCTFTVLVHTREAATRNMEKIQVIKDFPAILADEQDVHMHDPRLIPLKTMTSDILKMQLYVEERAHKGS
- assay.comment: ITC
quantity.name: Kd (nM)
Entry rule: numbers only, all in nM.

Record request: Kd value, item SHLD3(1–82) with C-terminal His6-tag (domain or fragment) MTTEVILHYRPCESDPTQLPKIAEKAIQDFPTRPLSRFIPWFPYDGSKLPLRPKRSPPVISEEAAEDVKQYLTISEHDAKSH
170
